tested on: MCF7; assay: Cytotoxicity against human MCF7 cells after 2 days by MTT assay; type: functional, cell-based; conditions: MCF7, 48 h
So I've got a bunch of molecules here, and I need their IC50 values.
Please state the number and follow it with the unit.

q: Entry under review: `CC(=O)OC[C@H]1O[C@H](O[C@]2(COC(C)=O)O[C@H](CO)[C@@H](OC(C)=O)[C@@H]2OC(=O)/C=C/c2ccc(O)cc2)[C@H](O)[C@@H](O)[C@@H]1O` . Reported IC50?
a: 620 nM

q: Entry under review: `CC(=O)OC[C@H]1O[C@H](O[C@]2(COC(C)=O)O[C@H](CO)[C@@H](O)[C@@H]2OC(=O)/C=C/c2ccc(O)cc2)[C@H](OC(C)=O)[C@@H](O)[C@@H]1O` . Reported IC50?
a: 3440 nM

q: Entry under review: `CC(=O)OC[C@H]1O[C@H](O[C@]2(CO)O[C@H](CO)[C@@H](O)[C@@H]2OC(=O)/C=C/c2ccc(O)cc2)[C@H](O)[C@@H](OC(C)=O)[C@@H]1OC(C)=O` . Reported IC50?
a: 2930 nM

* * *

test system: HT-29; experiment: Cytotoxicity against human HT-29 cells after 2 days by MTT assay; format: functional, cell-based; details: HT-29, 48 h
REPORTED METRIC: pIC50
In simple prose, pIC50 is minus the logarithm base ten of a concentration in moles per litre.

q: Entry under review: `CC(=O)OC[C@H]1O[C@H](O[C@]2(COC(C)=O)O[C@H](CO)[C@@H](O)[C@@H]2OC(=O)/C=C/c2ccc(O)cc2)[C@H](OC(C)=O)[C@@H](O)[C@@H]1O` . Reported pIC50?
a: 5.40

q: Entry under review: `CC(=O)OC[C@H]1O[C@H](O[C@]2(CO)O[C@H](CO)[C@@H](O)[C@@H]2OC(=O)/C=C/c2ccc(O)cc2)[C@H](OC(C)=O)[C@@H](OC(C)=O)[C@@H]1O` . Reported pIC50?
a: 5.61

q: Entry under review: `O=c1[nH]cc(F)c(=O)[nH]1` . Reported pIC50?
a: 4.76

q: Entry under review: `CC(=O)OC[C@H]1O[C@H](O[C@]2(COC(C)=O)O[C@H](CO)[C@@H](O)[C@@H]2OC(=O)/C=C/c2ccc(O)cc2)[C@H](O)[C@@H](OC(C)=O)[C@@H]1O` . Reported pIC50?
a: 5.68

q: Entry under review: `COc1cc(/C=C/C(=O)O[C@H]2[C@H](O)[C@@H](CO)O[C@@]2(COC(C)=O)O[C@H]2O[C@H](COC(C)=O)[C@@H](O)[C@H](O)[C@H]2OC(C)=O)ccc1O` . Reported pIC50?
a: 6.34

q: Entry under review: `CC(=O)OC[C@H]1O[C@H](O[C@]2(COC(C)=O)O[C@H](CO)[C@@H](O)[C@@H]2OC(=O)/C=C/c2ccc(O)cc2)[C@H](O)[C@@H](O)[C@@H]1OC(C)=O` . Reported pIC50?
a: 5.83

q: Entry under review: `CC(=O)OC[C@H]1O[C@H](O[C@]2(CO)O[C@H](CO)[C@@H](O)[C@@H]2OC(=O)/C=C/c2ccc(O)cc2)[C@H](O)[C@@H](OC(C)=O)[C@@H]1OC(C)=O` . Reported pIC50?
a: 5.56

q: Entry under review: `CC(=O)OC[C@H]1O[C@H](O[C@]2(COC(C)=O)O[C@H](CO)[C@@H](OC(C)=O)[C@@H]2OC(=O)/C=C/c2ccc(O)cc2)[C@H](O)[C@@H](O)[C@@H]1O` . Reported pIC50?
a: 6.74
